target: human mGlu 5a receptor (Homo sapiens, UniProt P41594)
Sequence (P41594 21-1180 isoform P41594-2 limits assumed): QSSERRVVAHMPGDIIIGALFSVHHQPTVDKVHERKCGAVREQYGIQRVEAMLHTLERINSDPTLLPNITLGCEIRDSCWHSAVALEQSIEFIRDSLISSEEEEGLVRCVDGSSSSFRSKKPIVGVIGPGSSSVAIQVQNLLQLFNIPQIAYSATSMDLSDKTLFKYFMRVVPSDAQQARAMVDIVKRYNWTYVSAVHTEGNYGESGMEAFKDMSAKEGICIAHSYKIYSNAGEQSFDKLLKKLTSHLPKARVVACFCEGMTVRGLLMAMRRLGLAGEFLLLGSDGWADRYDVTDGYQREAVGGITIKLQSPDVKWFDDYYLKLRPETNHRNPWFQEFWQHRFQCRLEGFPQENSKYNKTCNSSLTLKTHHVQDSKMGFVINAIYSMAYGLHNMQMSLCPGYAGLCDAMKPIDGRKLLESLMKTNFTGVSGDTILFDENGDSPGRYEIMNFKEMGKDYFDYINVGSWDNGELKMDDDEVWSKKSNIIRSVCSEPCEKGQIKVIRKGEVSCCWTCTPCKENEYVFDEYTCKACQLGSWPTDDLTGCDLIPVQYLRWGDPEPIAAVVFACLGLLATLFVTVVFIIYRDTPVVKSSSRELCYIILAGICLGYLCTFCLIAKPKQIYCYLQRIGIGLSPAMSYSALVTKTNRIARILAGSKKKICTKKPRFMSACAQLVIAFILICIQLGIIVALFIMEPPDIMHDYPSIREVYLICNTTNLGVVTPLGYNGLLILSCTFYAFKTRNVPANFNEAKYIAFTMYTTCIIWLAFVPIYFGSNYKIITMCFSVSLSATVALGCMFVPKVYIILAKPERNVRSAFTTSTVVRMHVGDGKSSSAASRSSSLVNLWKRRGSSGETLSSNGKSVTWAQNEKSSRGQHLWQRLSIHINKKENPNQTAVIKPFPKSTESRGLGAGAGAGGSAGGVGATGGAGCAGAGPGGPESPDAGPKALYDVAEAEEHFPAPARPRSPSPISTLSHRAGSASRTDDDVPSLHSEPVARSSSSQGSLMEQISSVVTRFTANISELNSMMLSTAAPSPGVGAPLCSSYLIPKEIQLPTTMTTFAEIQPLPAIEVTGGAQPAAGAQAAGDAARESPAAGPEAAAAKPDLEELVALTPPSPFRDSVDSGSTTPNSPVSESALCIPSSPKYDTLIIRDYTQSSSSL
Property name: Ki (nM)
Write the answer as a number in nM, unit excluded.

Using known records, supply Ki for Cc1cc(C#Cc2cn(Cc3cccc(C)n3)c(C)n2)ccn1 [Example 4]
93
